Each entry below carries its reported EC50.
# system.tested: AaDOP2 (Aedes aegypti, UniProt H6D5H2)
# experiment: cell-based
property: EC50 (µM)

- compound: "CNC[C@H](O)c1ccc(O)c(O)c1 [Epinephrine, (-)-epinephrine bitartrate]"
  unit.of.measure: "µM"
  test.result: 41.1
- compound: "NC[C@H](O)c1ccc(O)c(O)c1 [Norepinephrine, L (-)-norepinephrine bitartrate]"
  unit.of.measure: "µM"
  test.result: 30.3

###

# Tested on: C. quinquefasciatus larvae
# run.conditions: read-out: LC50, Cq; L3 larvae; 72 h exposure; ±SEM; n ≥ 3
property: LC50 (µM)

- compound: "CSc1ccc2c(c1)C(N1CCN(C)CC1)Cc1ccccc1S2 (stereo not shown) [Methiothepin]"
  system.tested: "C. quinquefasciatus larvae"
  test.result: 44

###

# system.tested: AaDOP2 (Aedes aegypti)
# Sequence (H6D5H2 1-476): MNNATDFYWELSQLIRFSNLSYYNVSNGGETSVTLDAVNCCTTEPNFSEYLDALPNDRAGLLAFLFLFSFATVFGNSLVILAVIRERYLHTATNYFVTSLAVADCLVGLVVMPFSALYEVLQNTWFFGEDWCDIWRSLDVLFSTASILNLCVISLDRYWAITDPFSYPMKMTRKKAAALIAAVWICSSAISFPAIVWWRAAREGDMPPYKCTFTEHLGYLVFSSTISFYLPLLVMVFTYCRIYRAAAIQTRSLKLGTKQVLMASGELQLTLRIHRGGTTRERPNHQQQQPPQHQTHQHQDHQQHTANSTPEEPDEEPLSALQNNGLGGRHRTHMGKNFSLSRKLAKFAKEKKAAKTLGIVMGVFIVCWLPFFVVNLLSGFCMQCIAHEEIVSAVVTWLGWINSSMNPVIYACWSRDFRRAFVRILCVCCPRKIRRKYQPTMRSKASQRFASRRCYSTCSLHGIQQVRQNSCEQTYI
# experiment: cell-based
pIC50: −log10 of the molar value. Counter-ions that a name gives are not always drawn.
property: pIC50

- compound: "CN1CC2c3ccccc3Oc3ccc(Cl)cc3C2C1 (stereo not drawn) [Asenapine, asenapine maleate]"
  system.tested: "AaDOP2 (Aedes aegypti)"
  test.result: 9.15
- compound: "CN1CCc2cc(Cl)c(O)cc2[C@@H](c2ccccc2)C1 [SCH23390, SCH23390 hydrochloride]"
  system.tested: "AaDOP2 (Aedes aegypti)"
  test.result: 6.15
- compound: "CN(C)CCCN1c2ccccc2Sc2ccc(Cl)cc21 [Chlorpromazine, chlorpromazine hydrochloride]"
  system.tested: "AaDOP2 (Aedes aegypti)"
  test.result: 7.72
- compound: "CN(C)CCC=C1c2ccccc2CCc2ccccc21 [Amitriptyline, amitriptyline hydrochloride]"
  system.tested: "AaDOP2 (Aedes aegypti)"
  test.result: 8.19
- compound: "CCNC(=O)N1CCN(CCCC(c2ccc(F)cc2)c2ccc(F)cc2)CC1 [Amperozide, amperozide hydrochloride]"
  system.tested: "AaDOP2 (Aedes aegypti)"
  test.result: 6.33
- compound: "OCCN1CCN(CC/C=C2/c3ccccc3Sc3ccc(C(F)(F)F)cc32)CC1 [Cis-(Z)-flupenthixol, cis-(Z)-flupenthixol dihydrochloride]"
  system.tested: "AaDOP2 (Aedes aegypti)"
  test.result: 8.70

###

Each entry below carries its reported EC50.
# system.tested: CqDOP2 (Culex quinquefasciatus, UniProt A0A0B5H0X6)
# Sequence (A0A0B5H0X6 entry or part of it): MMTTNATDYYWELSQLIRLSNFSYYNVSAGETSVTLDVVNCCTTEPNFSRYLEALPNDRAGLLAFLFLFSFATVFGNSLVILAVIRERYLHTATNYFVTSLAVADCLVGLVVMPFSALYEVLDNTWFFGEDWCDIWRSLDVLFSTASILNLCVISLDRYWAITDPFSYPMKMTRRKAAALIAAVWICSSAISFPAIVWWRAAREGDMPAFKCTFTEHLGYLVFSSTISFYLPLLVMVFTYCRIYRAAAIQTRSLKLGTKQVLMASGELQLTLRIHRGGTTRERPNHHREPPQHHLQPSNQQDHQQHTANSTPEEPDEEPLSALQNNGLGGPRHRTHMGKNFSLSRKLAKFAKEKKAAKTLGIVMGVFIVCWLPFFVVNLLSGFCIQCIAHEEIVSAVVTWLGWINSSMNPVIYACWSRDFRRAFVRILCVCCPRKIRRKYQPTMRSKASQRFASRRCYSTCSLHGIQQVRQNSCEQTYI
# experiment: HTRF cAMP accumulation assay, agonist response of CqDOP2 stably expressed in HEK293 cells
property: EC50 (µM)

- compound: "CNC[C@H](O)c1ccc(O)c(O)c1 [Epinephrine, (-)-epinephrine bitartrate]"
  unit.of.measure: "µM"
  test.result: 80.8
- compound: "NC[C@H](O)c1ccc(O)c(O)c1 [Norepinephrine, L (-)-norepinephrine bitartrate]"
  unit.of.measure: "µM"
  test.result: 52.2

###

# Test system: Ae. aegypti larvae
# run.conditions: read-out: LC50, Aa; L3 larvae; 72 h exposure; ±SEM; n ≥ 3
property: LC50 (µM)

- compound: "CSc1ccc2c(c1)C(N1CCN(C)CC1)Cc1ccccc1S2 (stereo not shown) [Methiothepin]"
  system.tested: "Ae. aegypti larvae"
  unit.of.measure: "µM"
  test.result: 69

###

Each entry below carries its reported pIC50.
# system.tested: CqDOP2 (Culex quinquefasciatus)
# experiment: cell-based
pIC50: −log10 of the molar value. Where a name gives a salt, the structure may show the parent alone.
property: pIC50

- compound: "CCNC(=O)N1CCN(CCCC(c2ccc(F)cc2)c2ccc(F)cc2)CC1 [Amperozide, amperozide hydrochloride]"
  test.result: 6.61
- compound: "CN(C)CCCN1c2ccccc2Sc2ccc(Cl)cc21 [Chlorpromazine, chlorpromazine hydrochloride]"
  test.result: 8.13
- compound: "CN(C)CCC=C1c2ccccc2CCc2ccccc21 [Amitriptyline, amitriptyline hydrochloride]"
  test.result: 8.48
- compound: "OCCN1CCN(CC/C=C2/c3ccccc3Sc3ccc(C(F)(F)F)cc32)CC1 [Cis-(Z)-flupenthixol, cis-(Z)-flupenthixol dihydrochloride]"
  test.result: 8.70
- compound: "CN1CC2c3ccccc3Oc3ccc(Cl)cc3C2C1 (stereo not drawn) [Asenapine, asenapine maleate]"
  test.result: 9.10
- compound: "CN1CCc2cc(Cl)c(O)cc2[C@@H](c2ccccc2)C1 [SCH23390, SCH23390 hydrochloride]"
  test.result: 6.13

###

# Tested on: Ae. aegypti larvae
# experiment: whole plant or invertebrate
# run.conditions: Aedes aegypti, 72 h, read-out: LC50, Aa
Where a name gives a salt, the structure may show the parent alone.

- compound: "CN(C)CCC=C1c2ccccc2CCc2ccccc21 [Amitriptyline, amitriptyline hydrochloride]"
  system.tested: "Ae. aegypti larvae"
  LC50 (µM): 208
- compound: "CN(C)CCCN1c2ccccc2Sc2ccc(Cl)cc21 [Chlorpromazine, chlorpromazine hydrochloride]"
  system.tested: "Ae. aegypti larvae"
  LC50 (µM): 88
- compound: "CN1CC2c3ccccc3Oc3ccc(Cl)cc3C2C1 (stereo not shown) [Asenapine, asenapine maleate]"
  system.tested: "Ae. aegypti larvae"
  LC50 (µM): 102
- compound: "CCNC(=O)N1CCN(CCCC(c2ccc(F)cc2)c2ccc(F)cc2)CC1 [Amperozide, amperozide hydrochloride]"
  system.tested: "Ae. aegypti larvae"
  LC50 (µM): 161
- compound: "CN(C)CC/C=C1/c2ccccc2Sc2ccc(Cl)cc21"
  system.tested: "Ae. aegypti larvae"
  LC50 (µM): 62
- compound: "OCCN1CCN(CC/C=C2/c3ccccc3Sc3ccc(C(F)(F)F)cc32)CC1 [Cis-(Z)-flupenthixol, cis-(Z)-flupenthixol dihydrochloride]"
  system.tested: "Ae. aegypti larvae"
  LC50 (µM): 83
- compound: "CN(C)CCCN1c2ccccc2CCc2ccc(Cl)cc21"
  system.tested: "Ae. aegypti larvae"
  LC50 (µM): 88
